Listed here are compounds together with their documented CLint scaled at 4 h, 9.8 µM.
- EXPERIMENTAL_PROTOCOL: Liver microsomes stability assay, human
- CONDITION_SET: pH 7.4
Number only, in mL/min/kg; omit the unit.

Past entries and their recorded results:
{"COMPOUND": "Oc1c(CN2CCCC2)cc(Cn2ccc3ccc(Cl)cc32)c2cccnc12 [10k]", "CLint scaled at 4 h, 9.8 µM (mL/min/kg)": 5.9}
{"COMPOUND": "Oc1c(CN2CCCC2)cc(Cn2ccc3cc(F)ccc32)c2cccnc12 [10f]", "CLint scaled at 4 h, 9.8 µM (mL/min/kg)": 4.5}
{"COMPOUND": "O=[N+]([O-])c1ccc2c(ccn2Cc2cc(CN3CCCC3)c(O)c3ncccc23)c1 [10h]", "CLint scaled at 4 h, 9.8 µM (mL/min/kg)": 9.6}

Quick one: CLint scaled at 4 h, 9.8 µM for COc1ccc2ccn(Cc3cc(CN4CCCC4)c(O)c4ncccc34)c2c1 [10n] ?
7.4
